Biological target: human notum pectinacetyltransferase (Homo sapiens)
Construct: made in house; unpurified conditioned medium used
Sequence (Q6P988 20-496): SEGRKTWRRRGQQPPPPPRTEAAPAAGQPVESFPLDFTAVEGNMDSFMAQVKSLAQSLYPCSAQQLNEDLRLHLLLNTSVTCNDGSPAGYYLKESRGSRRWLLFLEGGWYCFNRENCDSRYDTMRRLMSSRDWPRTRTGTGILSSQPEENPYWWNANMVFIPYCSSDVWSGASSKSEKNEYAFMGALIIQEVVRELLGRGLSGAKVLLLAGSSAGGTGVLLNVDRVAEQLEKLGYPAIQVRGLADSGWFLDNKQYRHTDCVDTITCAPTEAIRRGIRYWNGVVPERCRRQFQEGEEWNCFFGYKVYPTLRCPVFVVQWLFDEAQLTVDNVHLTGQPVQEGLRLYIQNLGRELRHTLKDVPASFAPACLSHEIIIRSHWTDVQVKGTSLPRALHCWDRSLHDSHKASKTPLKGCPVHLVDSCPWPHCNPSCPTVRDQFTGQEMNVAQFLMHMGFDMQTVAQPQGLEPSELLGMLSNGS
Experiment: Binding assay (OPTS esterase substrate, fluorimetric)
Format: biochemical
Settings: class symbols
Catalogue of IC50 values

Solved cases below.
The reported IC50 of the compound COc1ccccc1C1CN(C(=O)c2cc3c(s2)-c2ccc(Cl)c(F)c2OC3)CC1C(=O)O (stereo not drawn) was < 1000 nM

Noted for NC(=O)c1cc2c(s1)-c1cc(Cl)ccc1SC2 : its IC50 reads < 1000 nM

IC50 for O=C(O)c1cc2c(s1)-c1cc([N+](=O)[O-])ccc1OC2 is < 1000 nM

New cases:
// sample CC1Oc2ccc(F)cc2-c2sc(C(N)=O)cc21 (stereo not drawn) , its IC50 was < 100 nM

Memo: O=C(O)c1cc2c(s1)-c1cc(F)c(F)cc1CC2 , reported IC50: < 50 nM

Query NCCNC(=O)c1cc2c(s1)-c1ccccc1CC2 yields IC50 of < 2000 nM

The measured IC50 associated with NC(=O)c1cc2c(s1)-c1cc(Br)cc(Cl)c1OC2 reads < 1000 nM

response.value for NC(=O)c1cc2c(s1)-c1cc(Br)ccc1OC2 (field: IC50) = < 1000 nM

Reported IC50 ( NC(=O)c1cc2c(s1)-c1cccc(Cl)c1SC2 ) = < 1000 nM

GET /value?item= CCOC(=O)c1cc2c(s1)-c1ccc(C)c(F)c1CC2 &field=IC50 returns < 1000 nM

Entry CC1(C)Cc2cc(C(=O)O)sc2-c2ccc(Cl)cc21 , IC50 reported as < 2000 nM

GET /value?item= NC(=O)c1cc2c(s1)-c1cc(F)ccc1OC2 &field=IC50 returns < 50 nM

====

Target: human notum pectinacetyltransferase (Homo sapiens, UniProt Q6P988)
Construct: made in house; unpurified conditioned medium used
Assay: Binding assay (OPTS esterase substrate, fluorimetric)
Format: biochemical
Conditions: class symbols
Overview of recorded IC50 for various compounds

Past entries and their recorded results:
IC50 reported for this compound CCCNC(=O)c1cc2c(s1)-c1ccccc1CC2 : < 100 nM

Record summary for O=C(c1cc2c(s1)-c1c(F)ccc(F)c1SC2)N1CC[C@H](F)C1 : reported IC50 = < 100 nM

Field IC50 (entry Cc1cc(C)c2c(c1)-c1sc(C(=O)O)cc1CC2 ) reads < 50 nM

Looking up N#CCCNC(=O)c1cc2c(s1)-c1cccc(F)c1CC2 , I found its IC50 recorded as < 100 nM

Record COC(=O)CNC(=O)c1cc2c(s1)-c1cc(C)cc(C)c1CC2 . Reported IC50: < 2000 nM

***
IC50 measured on O=C(O)C1CCCN1C(=O)c1cc2c(s1)-c1c(F)ccc(F)c1SC2 (centres unmarked) = < 1000 nM

Item: Cc1ccc(Cl)c2c1-c1sc(C(N)=O)cc1CO2 | IC50: < 50 nM

Record summary for Cc1ccc2c(c1Cl)CCc1cc(C(N)=O)sc1-2 : reported IC50 = < 50 nM

====

Target: human notum pectinacetyltransferase (Homo sapiens, UniProt Q6P988)
Construct: made in house; unpurified conditioned medium used
Sequence (Q6P988 20-496): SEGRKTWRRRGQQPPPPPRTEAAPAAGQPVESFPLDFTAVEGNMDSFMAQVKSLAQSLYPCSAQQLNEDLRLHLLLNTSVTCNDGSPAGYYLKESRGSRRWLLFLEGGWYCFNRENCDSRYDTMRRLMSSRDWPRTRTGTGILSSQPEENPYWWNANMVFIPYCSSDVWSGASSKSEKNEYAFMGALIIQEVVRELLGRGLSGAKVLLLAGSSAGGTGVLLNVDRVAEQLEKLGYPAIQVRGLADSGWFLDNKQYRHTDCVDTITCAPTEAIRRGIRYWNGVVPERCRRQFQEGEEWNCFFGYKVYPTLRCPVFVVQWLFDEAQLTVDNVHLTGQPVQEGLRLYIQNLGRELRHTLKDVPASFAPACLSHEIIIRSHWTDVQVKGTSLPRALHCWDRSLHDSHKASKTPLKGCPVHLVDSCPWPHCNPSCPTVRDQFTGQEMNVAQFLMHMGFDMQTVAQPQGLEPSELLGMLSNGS
Experiment: Reporter assay (CellSensor LEF/TCF-bla FreeStyle 293F cells, Wnt3a and notum conditioned media)
Assay type: cell-based
Settings: class symbols
QUANTITY: EC50

Consider the following illustrative entries.
Case Cc1ccc2c(c1F)CCc1cc(C(=O)O)sc1-2 , human notum pectinacetyltransferase (Homo sapiens, UniProt Q6P988), EC50 recorded as < 50 nM

Entry O=C(O)c1cc2c(s1)-c1cc(F)cc(F)c1S(=O)(=O)C2 , tested on human notum pectinacetyltransferase (Homo sapiens, UniProt Q6P988), has a reported EC50 of < 500 nM

Kindly note: human notum pectinacetyltransferase (Homo sapiens, UniProt Q6P988), O=C(O)c1cc2c(s1)-c1ccc(F)cc1OC2 , EC50 value reported: < 50 nM

Others:
The recorded EC50 with human notum pectinacetyltransferase (Homo sapiens, UniProt Q6P988) for O=C(O)c1cc2c(s1)-c1ccc(Cl)c(F)c1SC2 was < 50 nM

Readout EC50 for CCC1Cc2cc(C(N)=O)sc2-c2c(F)ccc(F)c21 (centres unmarked) , test system human notum pectinacetyltransferase (Homo sapiens, UniProt Q6P988), was < 50 nM

With human notum pectinacetyltransferase (Homo sapiens, UniProt Q6P988) as the test system, CC1Cc2ccccc2-c2sc(C(=O)O)cc21 (centres unmarked) showed EC50 of < 50 nM

Response field EC50 (human notum pectinacetyltransferase (Homo sapiens, UniProt Q6P988)) for item O=C(O)c1cc2c(s1)-c1c(F)ccc(Cl)c1OC2 : < 50 nM

====

The reader will find reported EC50 values listed item by item below.
Molecular target: human notum pectinacetyltransferase (Homo sapiens, UniProt Q6P988)
Construct: made in house; unpurified conditioned medium used
Test: Reporter assay (CellSensor LEF/TCF-bla FreeStyle 293F cells, Wnt3a and notum conditioned media)
Assay type: cell-based
Details: class symbols

Take a look at these entries with their results.
Response field EC50 (human notum pectinacetyltransferase (Homo sapiens, UniProt Q6P988)) for item CC1Cc2cc(C(N)=O)sc2-c2cc(F)cc(F)c21 (centres unmarked) : < 50 nM

Item: NC(=O)c1cc2c(s1)-c1cc(F)cc(F)c1OC2 | System: human notum pectinacetyltransferase (Homo sapiens, UniProt Q6P988) | EC50: < 50 nM

Response field EC50 (human notum pectinacetyltransferase (Homo sapiens, UniProt Q6P988)) for item COc1ccc2c(c1Cl)CCc1cc(C(=O)NCCO)sc1-2 : < 50 nM

Form field EC50 for item NC(=O)c1cc2c(s1)-c1c(Cl)ccc(Cl)c1OC2 on human notum pectinacetyltransferase (Homo sapiens, UniProt Q6P988): < 50 nM

Tested on human notum pectinacetyltransferase (Homo sapiens, UniProt Q6P988), the item O=C(O)c1cc2c(s1)-c1cc([N+](=O)[O-])ccc1OC2 showed EC50 equal to < 50 nM

Continuing:
Log: human notum pectinacetyltransferase (Homo sapiens, UniProt Q6P988), molecule NC(=O)c1cc2c(s1)-c1cc(Cl)c(C(F)(F)F)cc1OC2 , EC50 = < 500 nM

Item CC1(C)Cc2cc(C(N)=O)sc2-c2ccc(Cl)cc21 ; assay system human notum pectinacetyltransferase (Homo sapiens, UniProt Q6P988); EC50 reported as < 50 nM

====

Target: human notum pectinacetyltransferase (Homo sapiens)
Construct: made in house; unpurified conditioned medium used
Test: Binding assay (OPTS esterase substrate, fluorimetric)
Type: biochemical
Details: class symbols
IC50 values by entry

The compound listed as O=C(c1cc2c(s1)-c1cc(F)cc(F)c1SC2)N1CC[C@H](F)C1 shows IC50 equal to < 1000 nM

Further cases:
Value of IC50 reported for the compound CCNC(=O)c1cc2c(s1)-c1ccccc1CC2 is < 1000 nM

For O=C(O)c1cc2c(s1)-c1ccc(Cl)c(F)c1OC2 the compound record lists IC50 as < 100 nM

Measured IC50, O=C(O)c1cc2c(s1)-c1cccc(Cl)c1CC2 : < 100 nM

IC50 measured on CC1Cc2cc(C(=O)O)sc2-c2cc(F)ccc21 (stereo not drawn) = < 50 nM

The reported value for O=C(O)C1CCN(C(=O)c2cc3c(s2)-c2cc(F)cc(F)c2SC3)C1 (stereo not drawn) in terms of IC50 is < 1000 nM

Lab note: O=C(NCc1ccccn1)c1cc2c(s1)-c1ccc(F)c(F)c1CC2 gave IC50 of < 50 nM

Record O=C(O)c1cc2c(s1)-c1ccc(Cl)cc1CC2 , field IC50: < 1000 nM

Value of IC50 reported for the compound Cc1cc(C)c2c(c1)-c1sc(C(=O)NCC(=O)O)cc1CC2 is < 1000 nM

Value of IC50 reported for the compound O=C(c1cc2c(s1)-c1ccc(Cl)c(Cl)c1OC2)N1CCC(F)C1 (stereo not drawn) is < 1000 nM

// IC50 value for NC(=O)c1cc2c(s1)-c1c(F)cccc1OC2 : < 50 nM

Record Cc1cc2c(cc1F)-c1sc(C(=O)O)cc1CO2 . Reported IC50: < 100 nM

Memo: Cc1cc(C)c2c(c1)-c1sc(C(N)=O)cc1CC2 , reported IC50: < 1000 nM

Record summary for Cc1ccc2c(c1F)OCc1cc(C(=O)O)sc1-2 : reported IC50 = < 1000 nM

The compound identified as COC(=O)CNC(=O)c1cc2c(s1)-c1ccccc1CC2 registered its IC50 at < 1000 nM
